System: NCI-H226 lung
TEST DETAILS: NCI-60 one-dose screen, 48 h (100 = growth as untreated, 0 = no growth, -100 = all killed)
MEASUREMENT SETUP: 10 µM
This is part of a sample that, as a whole, favours compounds with a hit. Of some 83,000 tested, about 20% had one in any assay.
EXPERIMENTAL READOUT: growth (%)
One number for each entry, in %.

Solved cases below.
[[record]]
compound = "O=C(CS)Nc1ccc2ccccc2c1"
system = "NCI-H226 lung"
unit_info = "%"
test_value = 121

[[record]]
compound = "CCS(=O)(=O)CCCl"
system = "NCI-H226 lung"
unit_info = "%"
test_value = 114

[[record]]
compound = "CC(C)=CC(=O)OC(=O)C=C(C)C"
system = "NCI-H226 lung"
unit_info = "%"
test_value = 93.5

[[record]]
compound = "COc1cc2c(cc1OC)[C@H](C(=O)O)[C@@H](c1ccc(OC(C)C)c(OC)c1)N(C)C2=O"
system = "NCI-H226 lung"
unit_info = "%"
test_value = 89.9

[[record]]
compound = "Clc1ccc(-c2nnc(-c3cccc4ccccc34)o2)cc1"
system = "NCI-H226 lung"
unit_info = "%"
test_value = 87.6

[[record]]
compound = "CCOc1ccc(/C=C/C(=O)c2ccccc2)cc1"
system = "NCI-H226 lung"
unit_info = "%"
test_value = 114


Batch lookup, growth per entry.
1. O=C(O)c1ccnc(Br)c1
2. CCCCCCCCCCCCCCCCC1CC(=O)OC1=O (centres undefined)
3. Cc1cc(C)cc(NCCC#N)c1
4. CC(C)C1CCCCC1O (centres undefined)
5. CCNCCCCNCCCCNCCCCNCCCCNCC
6. CC(=O)NC(N)=S

[92.6, 103, 112, 112, 134, 103]

// input: 2 compounds below; output: growth for each
1. CC1(C)S(=O)(=O)OCCOS1(=O)=O
2. C/C(=C\c1ccc([N+](=O)[O-])cc1)C(=O)O

102
98.3
